Data origin, for the record: paper PMC4990076

target: human Icmt (hIcmt) (Homo sapiens, UniProt O60725); assay: in vitro vapor diffusion assay for hIcmt activity; format: biochemical
Sequence (O60725 whole entry, the tested form may be a part): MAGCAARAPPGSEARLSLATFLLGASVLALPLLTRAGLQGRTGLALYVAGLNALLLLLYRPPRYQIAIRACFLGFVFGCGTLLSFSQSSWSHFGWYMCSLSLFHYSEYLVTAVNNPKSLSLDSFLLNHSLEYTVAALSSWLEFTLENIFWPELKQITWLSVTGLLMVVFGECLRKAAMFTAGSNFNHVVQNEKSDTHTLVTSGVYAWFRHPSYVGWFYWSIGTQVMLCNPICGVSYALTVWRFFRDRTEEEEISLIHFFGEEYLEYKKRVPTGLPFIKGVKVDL
measurement kind: hIcmt inhibitory activity (in words)

Known results for compounds:
1) c1csc(C(c2ccc3ccccc3c2)C2CCNCC2)c1 (stereo not shown) ... not active
2) c1ccc(C(=C2CCOCC2)c2cccs2)cc1 ... inactive
3) CN1CCC(C(c2ccc3ccccc3c2)c2cccs2)CC1 (stereo not shown) ... not active
4) OC(c1ccccc1)(c1cccs1)C1CCOCC1 (stereo not shown) ... inactive
5) c1ccc(C(=C2CCOCC2)c2ccc3ccccc3c2)cc1 ... inactive
6) c1ccc2cc(CC3CCOCC3)ccc2c1 ... abolished activity

Moving on to another compound below.
State the recorded hIcmt inhibitory activity (in words) for this entry: O=C(c1ccc2ccccc2c1)C1CCOCC1
abolished activity
